Consider the following molecules; for each one, report its EC50.
System: HCV replicon cells
assay_method_text: Cell-based HCV replicon assay (replicon RNA by Taqman real time PCR)
reported_conditions: read-out: 1b EC50
Numbers only, in µM.

Consider the reported EC50 for these molecules:
[[record]]
molecule = "CC(C)COC(=O)[C@H](C)NP(=O)(OC[C@H]1O[C@@H](n2ccc(=O)[nH]c2=O)[C@](C)(N=[N+]=[N-])[C@@H]1O)Oc1ccccc1 (stereo partly shown) [Compound 38]"
system_name = "HCV replicon cells"
endpoint_label = "EC50"
output_unit = "µM"
obs_value = 0.3

[[record]]
molecule = "C[C@H](NP(=O)(OC[C@H]1O[C@@H](n2ccc(=O)[nH]c2=O)[C@](C)(N=[N+]=[N-])[C@@H]1O)Oc1ccc(F)cc1)C(=O)OC1CCCCC1 (single isomer, unassigned) [Compound 233]"
system_name = "HCV replicon cells"
endpoint_label = "EC50"
output_unit = "µM"
obs_value = 2.1

[[record]]
molecule = "CCOc1nc(N)nc2c1ncn2[C@@H]1O[C@H](COP(=O)(N[C@@H](C)C(=O)OC(C)C)Oc2ccc(Cl)c(Cl)c2)[C@@H](O)[C@@]1(C)N=[N+]=[N-] (single isomer, unassigned) [Compound 361]"
system_name = "HCV replicon cells"
endpoint_label = "EC50"
output_unit = "µM"
obs_value = 11.2


Give EC50 for each of the items listed below.
1. CCOC(=O)[C@H](C)NP(=O)(OC[C@H]1O[C@@H](n2ccc(N)nc2=O)[C@](C)(N=[N+]=[N-])[C@@H]1O)Oc1ccc(Cl)cc1 (single isomer, unassigned) [Compound 190]
2. CCOC(=O)[C@H](C)NP(=O)(OC[C@H]1O[C@@H](n2cnc3c(OC)nc(N)nc32)[C@](C)(N=[N+]=[N-])[C@@H]1O)Oc1ccccc1 (stereo partly shown) [Compound 54]
3. COC(=O)[C@H](C)NP(=O)(OC[C@H]1O[C@@H](n2cnc3c(OC)nc(N)nc32)[C@](C)(N=[N+]=[N-])[C@@H]1O)Oc1ccc(Cl)cc1 (single isomer, unassigned) [Compound 259]
4. C[C@H](NP(=O)(OC[C@H]1O[C@@H](n2ccc(N)nc2=O)[C@](C)(N=[N+]=[N-])[C@@H]1O)Oc1ccccc1)C(=O)OC1CCCCC1 (single isomer, unassigned) [Compound 338]
5. CC(C)OC(=O)[C@H](C)NP(=O)(OC[C@H]1O[C@@H](n2ccc(N)nc2=O)[C@](C)(N=[N+]=[N-])[C@@H]1O)Oc1ccccc1Cl (single isomer, unassigned) [Compound 203]
6. COC(=O)[C@H](C)NP(=O)(OC[C@H]1O[C@@H](n2ccc(N)nc2=O)[C@](C)(N=[N+]=[N-])[C@@H]1O)Oc1ccccc1Cl (single isomer, unassigned) [Compound 331]
7. C[C@H](NP(=O)(OC[C@H]1O[C@@H](n2ccc(N)nc2=O)[C@](C)(N=[N+]=[N-])[C@@H]1O)Oc1ccccc1)C(=O)OC1CCCC1 (stereo partly shown) [Compound 205]

Outgoing:
[5.6, 0.3, 0.6, 26, 20, 10, 15]

---

Field: log10 EC50. Provide a value for each of the compounds that follow.
Tested on: HCV replicon cells
assay_method_text: Cell-based HCV replicon assay (replicon RNA by Taqman real time PCR)
reported_conditions: read-out: 1b EC50
log10 EC50, µM

Example entries and their recorded answers appear below.
[[record]]
compound = "CCOC(=O)[C@H](C)NP(=O)(OC[C@H]1O[C@@H](n2cnc3c(OCC)nc(N)nc32)[C@](C)(N=[N+]=[N-])[C@@H]1O)Oc1ccc(F)cc1 (single isomer, unassigned)"
obs_value = -0.52

[[record]]
compound = "COC(=O)[C@H](C)NP(=O)(OC[C@H]1O[C@@H](n2ccc(=O)[nH]c2=O)[C@](C)(N=[N+]=[N-])[C@@H]1O)Oc1ccc(Cl)cc1 (single isomer, unassigned) [Compound 326]"
obs_value = -0.30

[[record]]
compound = "CCOc1nc(N)nc2c1ncn2[C@@H]1O[C@H](COP(=O)(N[C@@H](C)C(=O)OCC(C)(C)C)Oc2ccccc2)[C@@H](O)[C@@]1(C)N=[N+]=[N-] (single isomer, unassigned) [Compound 161]"
obs_value = 0.23

[[record]]
compound = "CCCCOC(=O)[C@H](C)NP(=O)(OC[C@H]1O[C@@H](n2cnc3c(OC)nc(N)nc32)[C@](C)(N=[N+]=[N-])C1O)Oc1cccc2ccccc12 (single isomer, unassigned)"
obs_value = -1.00

[[record]]
compound = "COc1nc(N)nc2c1ncn2[C@@H]1O[C@H](COP(=O)(N[C@@H](C)C(=O)OCC(C)(C)C)Oc2ccccc2)C(O)[C@@]1(C)N=[N+]=[N-] (single isomer, unassigned) [Compound 292]"
obs_value = -0.40


Consider the following items and state reported log10 EC50 for each.
1. CCOc1nc(N)nc2c1ncn2[C@@H]1O[C@H](COP(=O)(N[C@@H](C)C(=O)OCC(C)C)Oc2ccccc2)[C@@H](O)[C@@]1(C)N=[N+]=[N-] (some centres unmarked) [Compound 60]
2. COC(=O)[C@H](C)NP(=O)(OC[C@H]1O[C@@H](n2ccc(=O)[nH]c2=O)[C@](C)(N=[N+]=[N-])[C@@H]1O)Oc1ccccc1Cl (some centres unmarked)
3. CC(C)OC(=O)[C@H](C)NP(=O)(OC[C@H]1O[C@@H](n2ccc(N)nc2=O)[C@](C)(N=[N+]=[N-])[C@@H]1O)Oc1ccccc1Cl (some centres unmarked) [Compound 95]
4. COC(=O)[C@H](C)NP(=O)(OC[C@H]1O[C@@H](n2ccc(=O)[nH]c2=O)[C@](C)(N=[N+]=[N-])[C@@H]1O)Oc1ccc(Cl)cc1 (some centres unmarked) [Compound 325]
5. CCOc1nc(N)nc2c1ncn2[C@@H]1O[C@H](COP(=O)(N[C@@H](C)C(=O)OC(C)C)Oc2ccc(F)cc2)[C@@H](O)[C@@]1(C)N=[N+]=[N-] (single isomer, unassigned) [Compound 365]
6. CCCCOC(=O)[C@H](C)NP(=O)(OC[C@H]1O[C@@H](n2cnc3c(OC)nc(N)nc32)[C@](C)(N=[N+]=[N-])C1O)Oc1ccccc1 (single isomer, unassigned)
7. COC(=O)[C@H](C)NP(=O)(OC[C@H]1O[C@@H](n2cnc3c(OC)nc(N)nc32)[C@](C)(N=[N+]=[N-])C1O)Oc1ccccc1 (single isomer, unassigned) [Compound 261]
8. CCOc1nc(N)nc2c1ncn2[C@@H]1O[C@H](COP(=O)(N[C@@H](C)C(=O)OCC(C)C)Oc2ccccc2)[C@@H](O)[C@@]1(C)N=[N+]=[N-] (some centres unmarked) [Compound 61]

Outgoing:
0.30
0.81
0.65
0.60
0.04
0.18
-0.05
-0.10

Below are some compounds; for each one, tell me its log10 EC50.
1. CCOc1nc(N)nc2c1ncn2[C@@H]1O[C@H](COP(=O)(N[C@@H](C)C(=O)OC(C)C)Oc2ccc(F)cc2)[C@@H](O)[C@@]1(C)N=[N+]=[N-] (single isomer, unassigned) [Compound 364]
2. CCOc1nc(N)nc2c1ncn2[C@@H]1O[C@H](COP(=O)(N[C@@H](C)C(=O)OC(C)C)Oc2ccccc2Cl)[C@@H](O)[C@@]1(C)N=[N+]=[N-] (single isomer, unassigned) [Compound 315]
3. CCOC(=O)c1ccccc1OP(=O)(N[C@@H](C)C(=O)OC)OC[C@H]1O[C@@H](n2ccc(=O)[nH]c2=O)[C@](C)(N=[N+]=[N-])[C@@H]1O (single isomer, unassigned) [Compound 225]

Outgoing:
[0.81, 0.96, 0.45]

Incoming: Which log10 EC50 is reported for this compound? C[C@H](NP(=O)(OC[C@H]1O[C@@H](n2ccc(=O)[nH]c2=O)[C@](C)(N=[N+]=[N-])[C@@H]1O)Oc1ccccc1)C(=O)OCC(C)(C)C (single isomer, unassigned) [Compound 154]
Outgoing: -0.15

---

Test system: HCV replicon cells
assay_method_text: Cell-based HCV replicon assay (replicon RNA by Taqman real time PCR)
reported_conditions: read-out: 1b EC50
Give measured EC50 for each item. Keep answers brief.
One number for each entry, in nM.

Items follow; give EC50 for each.
1. C[C@H](NP(=O)(OC[C@H]1O[C@@H](n2ccc(N)nc2=O)[C@](C)(N=[N+]=[N-])[C@@H]1O)Oc1ccccc1Cl)C(=O)OCC(C)(C)C (single isomer, unassigned) [Compound 181]
2. CCOc1nc(N)nc2c1ncn2[C@@H]1O[C@H](COP(=O)(N[C@@H](C)C(=O)OC(C)C)Oc2ccccc2)[C@@H](O)[C@@]1(C)N=[N+]=[N-] (single isomer, unassigned) [Compound 165]
3. CCOc1nc(N)nc2c1ncn2[C@@H]1O[C@H](COP(=O)(N[C@@H](C)C(=O)OCc2ccccc2)Oc2ccccc2)[C@@H](O)[C@@]1(C)N=[N+]=[N-] (single isomer, unassigned) [Compound 351]
4. CCOc1nc(N)nc2c1ncn2[C@@H]1O[C@H](COP(=O)(N[C@@H](C)C(=O)OC)Oc2ccccc2)[C@@H](O)[C@@]1(C)N=[N+]=[N-] (single isomer, unassigned) [Compound 143]
5. CCOc1nc(N)nc2c1ncn2[C@@H]1O[C@H](COP(=O)(N[C@@H](C)C(=O)OCC(C)C)Oc2ccccc2)[C@@H](O)[C@@]1(C)N=[N+]=[N-] (some centres unmarked) [Compound 62]

Outgoing:
1: 3800; 2: 6200; 3: 2600; 4: 600; 5: 800
